All figures here come from PubChem BioAssay AID1871.

Molecular target: Regulator of G-protein signaling 7 (Homo sapiens) (UniProt P49802)
Sequence (P49802 whole entry, looked up): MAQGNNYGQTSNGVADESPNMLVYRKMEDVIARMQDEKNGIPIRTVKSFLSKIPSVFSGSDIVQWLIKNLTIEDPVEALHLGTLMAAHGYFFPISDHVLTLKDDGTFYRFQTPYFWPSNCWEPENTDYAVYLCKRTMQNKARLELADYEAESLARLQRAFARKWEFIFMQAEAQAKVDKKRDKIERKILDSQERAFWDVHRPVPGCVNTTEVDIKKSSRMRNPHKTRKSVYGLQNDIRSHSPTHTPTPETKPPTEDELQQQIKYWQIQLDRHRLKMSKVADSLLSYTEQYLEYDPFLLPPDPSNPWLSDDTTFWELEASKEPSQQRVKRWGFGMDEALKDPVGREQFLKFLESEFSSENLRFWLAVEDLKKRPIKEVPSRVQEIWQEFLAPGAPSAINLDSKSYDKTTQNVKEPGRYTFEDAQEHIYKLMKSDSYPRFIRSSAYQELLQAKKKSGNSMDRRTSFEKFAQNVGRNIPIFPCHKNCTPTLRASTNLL
Test: RGS7-Galphao binding modulators, dose response, biochemical, multiplexed bead flow cytometry (AID 1871)
Details: bead-based flow cytometry, measured here: Ki for RGS7-Galphao
property: pKi
pKi is a log-scale quantity: -log10 of the concentration expressed in molar.

Please review the following examples before continuing.
{"columns": ["compound", "pKi"],
 "data": [
  ["CC(=O)N(O)CCCCCNC(=O)CCC(=O)N(O)CCCCCNC(=O)CCC(=O)N(O)CCCCCN", 5.98],
  ["CC1(C)OC(=O)C(=Cc2ccc(-c3ccc(S(N)(=O)=O)cc3)o2)C(=O)O1", 5.31],
  ["COc1ccc(C2=CC(=O)C=CC2=O)cc1", 5.09],
  ["CN1CCN(C2=C(Cl)C(=O)C(c3cnc(N4CCCCC4)s3)=C(Cl)C2=O)CC1", 6.82],
  ["CN(C)c1ncc(C2=C(Cl)C(=O)C(N3CCCC3)=C(Cl)C2=O)s1", 5.94]
]}

Retrieve pKi measured for NS(=O)(=O)c1ccc(N/N=C/c2ccc(O)c(O)c2O)c([N+](=O)[O-])c1 and print it.
5.78

Retrieve pKi measured for CCC(=O)NC(c1ccc(C)cc1)c1cc([N+](=O)[O-])c2cccnc2c1O (stereo unspecified) and print it.
4.94

Retrieve pKi measured for CCC(=O)NC1=C(Cl)C(=O)C(NC(=O)CC)=C(Cl)C1=O and print it.
5.48

Retrieve pKi measured for O=C(O)C[C@@H]1C(=O)O[C@@H]2C(COC(=O)c3cc(O)c(O)c(O)c3)O[C@@H](OC(=O)c3cc(O)c(O)c(O)c3)[C@@H](OC(=O)c3cc(O)c(O)c4c3[C@H]1[C@H](O)C(=O)O4)[C@H]2OC(=O)c1cc(O)c(O)c(O)c1 (stereo partly specified) and print it.
6.29

Retrieve pKi measured for COc1ccc(OC)c(CCNC(=O)Cn2sc3nc(C)cc(C)c3c2=O)c1 and print it.
5.46

Retrieve pKi measured for O=C1C(Cl)=C(N2CCCCC2)C(=O)C(Cl)=C1c1cnc(N2CCCCC2)s1 and print it.
6.15

###

Target: Regulator of G-protein signaling 7 (Homo sapiens)
Assay: RGS7-Galphao binding modulators, dose response, biochemical, multiplexed bead flow cytometry (AID 1871)
Conditions: bead-based flow cytometry
Calls of active or inactive are those of the source. How the calls were made is not given here.
Bench note: report the call from active, inactive

Look over these answered cases.
{"columns": ["molecule", "classification"],
 "data": [
  ["CCOC(=O)N=Nc1c(O)n(C)c2ccccc12", "inactive"],
  ["O=c1[nH]c(=S)n(Cc2ccco2)c(O)c1C=NCc1cccs1", "inactive"]
]}

For COc1ccc(Br)cc1/C=N/Nc1cccc(C(=O)O)c1 , what call appears in the results of this test?
inactive

For CC(C)Sc1nc2ccc(N3C(=O)C4CCCCC4C3=O)cc2s1 (centres undefined) , what call appears in the results of this test?
inactive

For CCOC(=O)/C(C(=O)Nc1ccccc1Cl)=C1/NC(C)(C)Cc2ccccc21 , what call appears in the results of this test?
inactive

For O=C1CCCC2=C1C(c1cccs1)n1ncnc1N2 (centres undefined) , what call appears in the results of this test?
inactive

For CCOC(=O)C1=C(C)NC(C)=C(C(=O)OCCNC(=O)c2cccnc2)C1c1cccc([N+](=O)[O-])c1 (centres undefined) , what call appears in the results of this test?
inactive

For CN(C)[C@@H]1C(=O)C(C(=O)NCN2CCCC2)=C(O)[C@@]2(O)C(=O)C3=C(O)c4c(O)cccc4[C@@](C)(O)C3CC12 (some centres undefined) , what call appears in the results of this test?
active

For NS(=O)(=O)c1ccc(N/N=C/c2ccc(O)c(O)c2O)c([N+](=O)[O-])c1 , what call appears in the results of this test?
active
